Each recorded value in this set is attributed to patent EP2951180B1.

Subject Of Test: HDM2 (Homo sapiens, UniProt Q00987)
Construct: Thioredoxin (N); made in house; host or cells: E. coli strain BL21(DE3)Rosetta
Sequence (Q00987 17-125): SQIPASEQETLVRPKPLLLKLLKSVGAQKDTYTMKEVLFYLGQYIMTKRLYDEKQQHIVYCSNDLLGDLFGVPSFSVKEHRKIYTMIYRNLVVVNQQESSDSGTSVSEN
Assay Summary: HDM2 FRET assay (inhibition of binding of FITC labeled p53-pocket peptide to HDM2)
Conditions: Table 9; read-out: FRET IC50
Task for the reader: assign each of the following compounds its reported IC50.

Need IC50, item C[C@@H](Nc1nc(-c2noc(=O)[nH]2)nc2nc(N3CCCCC3CF)n(Cc3ccc(C(F)(F)F)cc3)c12)C1CCC1 (stereo partly drawn)
12.1 nM

For each listed entry, give its IC50.
1. CC(C)CC1COCCN1c1nc2nc(-c3noc(=O)[nH]3)nc(N[C@H](C)C3CCC3)c2n1Cc1ccc(C(F)(F)F)cc1 (stereo partly drawn)
2. C#CCC1CN(c2nc3nc(C(=O)O)nc(N[C@H](C)C4CCC4)c3n2Cc2ccc(C(F)(F)F)cc2)CCO1 (stereo partly drawn)

1: 9.8 nM; 2: 34.2 nM

----------
Subject Of Test: HDM2 (Homo sapiens)
Construct: Thioredoxin (N); made in house; host or cells: E. coli strain BL21(DE3)Rosetta
Assay Summary: HDM2 FRET assay (inhibition of binding of FITC labeled p53-pocket peptide to HDM2)
Conditions: 0.5 nM HDM2 (residues 17 to 125), 3nM peptide, two hour incubation at room temperature; read-out: FRET IC50
Task for the reader: assign each of the following molecules its reported log10 of IC50.
// stored as log10 of IC50 expressed in nM

Need log10 of IC50, item "CC(C)c1cc(F)nc(-c2nc3nc(-c4noc(=O)[nH]4)nc(N[C@H](C)C4CCC4)c3n2C[C@H]2CC[C@H](C)CC2)c1"
1.53

Another molecule to look at: "C[C@H]1CC[C@H](Cn2c(N3CCOC[C@H]3c3ccccc3)nc3nc(-c4noc(=O)[nH]4)nc(C4CCCCC4)c32)CC1"
0.71

For each listed entry, give its log10 of IC50.
1. Cc1cccc(-c2nc3nc(C(N)=O)nc(N[C@H](C)C4CC4)c3n2Cc2ccc(C(F)(F)F)cc2)c1
2. CC(C)C[C@@H]1COCCN1c1nc2nc(-c3noc(=O)[nH]3)nc(-c3cccc(Cl)c3)c2n1C[C@H]1CC[C@H](C)CC1
3. C[C@@H](Nc1nc([S+](C)[O-])nc2nc(N3CCOC[C@H]3c3ccccc3)n(C[C@H]3CC[C@H](C)CC3)c12)C1CCC1 (single isomer, unassigned) [Example 14.2]

1. 3.31
2. 0.66
3. 1.02

For each listed entry, give its log10 of IC50.
1. C[C@H]1CC[C@H](Cn2c(N3CCOC[C@H]3c3ccccn3)nc3nc(-c4n[nH]c(=O)o4)nc(-c4cccc(Cl)c4)c32)CC1
2. Cc1cccc(-c2nc(-c3noc(=O)[nH]3)nc3nc(N4CCOC[C@@H]4C)n(C[C@H]4CC[C@H](C)CC4)c23)c1
3. C[C@H]1CC[C@H](Cn2c(N3CCC[C@H]3C(F)(F)F)nc3nc(-c4n[nH]c(=O)o4)nc(-c4cncc(Cl)c4)c32)CC1
4. C[C@H](O)[C@H](Nc1nc2nc(-c3n[nH]c(=O)o3)nc(-c3cccc(Cl)c3)c2n1C[C@H]1CC[C@H](C)CC1)c1ccccc1
5. CC(C)c1ccnc(-c2nc3nc(C(C)O)nc(N[C@H](C)C4CCC4)c3n2C[C@H]2CC[C@H](C)CC2)c1 (stereo partly drawn)

1. 0.30
2. 2.70
3. -0.08
4. 0.74
5. 2.62

For each listed entry, give its log10 of IC50.
1. CC[C@H](Nc1nc2nc(-c3n[nH]c(=O)o3)nc(-c3cccc(Cl)c3)c2n1C[C@H]1CC[C@H](C)CC1)c1cccc(F)c1
2. C[C@@H]1COCCN1c1nc2nc(-c3noc(=O)[nH]3)nc(-c3cncc(Cl)c3)c2n1C[C@H]1CC[C@H](C)CC1

1. 1.12
2. 1.26

----------
Task for the reader: assign each of the following compounds its reported IC50.
Subject Of Test: HDM2 (Homo sapiens, UniProt Q00987)
Construct: Thioredoxin (N); made in house; host or cells: E. coli strain BL21(DE3)Rosetta
Assay Summary: HDM2 FRET assay (inhibition of binding of FITC labeled p53-pocket peptide to HDM2)
Conditions: Table 6; read-out: FRET IC50
Numbers only, in nM.

For each listed entry, give its IC50.
1. Cc1cccc(-c2nc3nc(C(=O)O)nc(N4CCCC4)c3n2Cc2ccc(C(F)(F)F)cc2)c1
2. CCCCN(CC)c1nc(C(=O)O)nc2nc(-c3cccc(C)c3)n(Cc3ccc(C(F)(F)F)cc3)c12

8270
621

For each listed entry, give its IC50.
1. Cc1cccc(-c2nc3nc(C(=O)O)nc(N[C@H](C)c4ccc(Cl)cc4)c3n2Cc2ccc(C(F)(F)F)cc2)c1
2. Cc1cccc(-c2nc3nc(C(=O)O)nc(NC(C)C(C)(C)O)c3n2Cc2ccc(C(F)(F)F)cc2)c1 (stereo not shown)

1. 372
2. 2260

----------
Task for the reader: assign each of the following molecules its reported log10 IC50.
Subject Of Test: HDM2 (Homo sapiens, UniProt Q00987)
Construct: Thioredoxin (N); made in house; host or cells: E. coli strain BL21(DE3)Rosetta
Assay Summary: HDM2 FRET assay (inhibition of binding of FITC labeled p53-pocket peptide to HDM2)
Conditions: Table 22; read-out: FRET IC50
// stored as log10 of IC50 expressed in nM

Need log10 IC50, item C[C@@H](Nc1nc(-c2noc(=O)[nH]2)nc2nc(C(C)(O)c3cscn3)n(C[C@H]3CC[C@H](C)CC3)c12)C1CCC1 (stereo partly drawn) [Example 22.52]
0.27

Another molecule to look at: C[C@@H](Nc1nc(-c2noc(=O)[nH]2)nc2nc(C(C)(O)c3ccccc3)n(C[C@H]3CC[C@H](C)CC3)c12)C1CCC1 (single isomer, unassigned) [Example 22.24]
1.53

Another molecule to look at: C[C@@H](Nc1nc(-c2noc(=O)[nH]2)nc2nc(C(C)(O)c3cccnc3)n(C[C@H]3CC[C@H](C)CC3)c12)C1CCC1 (stereo partly drawn) [Example 22.40]
1.62

Another molecule to look at: C[C@@H](Nc1nc(-c2noc(=O)[nH]2)nc2nc(C(C)(O)c3nccs3)n(C[C@H]3CC[C@H](C)CC3)c12)C1CCC1 (stereo partly drawn) [Example 22.58]
0.86

Another molecule to look at: C[C@@H](Nc1nc(-c2noc(=O)[nH]2)nc2nc(C(=O)C3CCOCC3)n(C[C@H]3CC[C@H](C)CC3)c12)C1CCC1 [Example 22.31]
0.81

Read the next record carefully.
Need log10 IC50, item C[C@@H](Nc1nc(-c2noc(=O)[nH]2)nc2nc(C(C)(O)c3ccccc3)n(C[C@H]3CC[C@H](C)CC3)c12)C1CCC1 (single isomer, unassigned) [Example 22.23]
0.80

----------
Subject Of Test: HDM2 (Homo sapiens, UniProt Q00987)
Construct: Thioredoxin (N); made in house; host or cells: E. coli strain BL21(DE3)Rosetta
Assay Summary: HDM2 FRET assay (inhibition of binding of FITC labeled p53-pocket peptide to HDM2)
Conditions: Table 11; read-out: FRET IC50
Task for the reader: assign each of the following compounds its reported IC50.
One number for each entry, in nM.

Recorded results for 5 compounds are shown here.
Need IC50, item C[C@@H](Nc1nc(-c2n[nH]c(=O)o2)nc2nc(N3CCOC4CCCCC43)n(C[C@H]3CC[C@H](C)CC3)c12)C1CCC1 (single isomer, unassigned) [Example 11.126]
1.46

Another compound to look at: CC1CCCCN1c1nc2nc(C(=O)O)nc(N[C@H](C)C3CCC3)c2n1C[C@H]1CC[C@H](C)CC1 (stereo partly drawn)
2.23

Another compound to look at: "C[C@@H](Nc1nc(-c2noc(=O)[nH]2)nc2nc(N3CCC[C@H]3c3nnnn3C)n(C[C@H]3CC[C@H](C)CC3)c12)C1CCC1"
6.76

Another compound to look at: CC(Nc1nc2nc(-c3noc(=O)[nH]3)nc(N[C@H](C)C3CCC3)c2n1C[C@H]1CC[C@H](C)CC1)c1cncnc1 (stereo partly drawn) [Example 11.92]
11.7

Another compound to look at: CCC1CCCN1c1nc2nc(-c3noc(=O)[nH]3)nc(N[C@H](C)C3CCC3)c2n1C[C@H]1CC[C@H](C)CC1 (stereo partly drawn)
5.37

Read the next record carefully.
Need IC50, item C[C@@H](Nc1nc(-c2noc(=O)[nH]2)nc2nc(N3CCOCC3c3ccccc3Cl)n(C[C@H]3CC[C@H](C)CC3)c12)C1CCC1 (single isomer, unassigned) [Example 11.117]
3.77

----------
Subject Of Test: HDM2 (Homo sapiens, UniProt Q00987)
Construct: Thioredoxin (N); made in house; host or cells: E. coli strain BL21(DE3)Rosetta
Assay Summary: HDM2 FRET assay (inhibition of binding of FITC labeled p53-pocket peptide to HDM2)
Conditions: Table 6; read-out: FRET IC50
Observable: pIC50
One number for each entry, as −log10 of the molar value.

Recorded results for 8 compounds are shown here.
Need pIC50, item "Cc1cccc(-c2nc3nc(C(=O)O)nc(NCC4CC4)c3n2Cc2ccc(C(F)(F)F)cc2)c1"
6.17

Another compound to look at: Cc1cccc(-c2nc3nc(C(=O)O)nc(NC4CCCCC4C)c3n2Cc2ccc(C(F)(F)F)cc2)c1 (centres unmarked)
6.64

Another compound to look at: "Cc1cccc(-c2nc3nc(C(=O)O)nc(N[C@H](C)C4CC4)c3n2Cc2ccc(Br)cc2)c1"
6.63

Another compound to look at: "Cc1cccc(-c2nc3nc(C(=O)O)nc(N[C@@H](C)c4ccccc4)c3n2Cc2ccc(C(F)(F)F)cc2)c1"
5.37

Another compound to look at: "C[C@@H](Nc1nc(C(=O)O)nc2nc(-c3ccc4sccc4c3)n(Cc3ccc(C(F)(F)F)cc3)c12)C1CC1"
7.79

Another compound to look at: "CC[C@@H](C)Nc1nc(C(=O)O)nc2nc(-c3cccc(C)c3)n(Cc3ccc(C(F)(F)F)cc3)c12"
6.23

Another compound to look at: "Cc1cccc(-c2nc3nc(C(=O)O)nc(N[C@H](C)C4CCCC4)c3n2Cc2ccc(Cl)cc2)c1"
7.50

Another compound to look at: Cc1cccc(-c2nc3nc(C(=O)O)nc(NC(C)C(C)(C)C)c3n2Cc2ccc(C(F)(F)F)cc2)c1 (centres unmarked)
6.26

For each listed entry, give its pIC50.
1. Cc1cccc(-c2nc3nc(C(=O)O)nc(N[C@H](C)C4CCC4)c3n2Cc2ccc(Br)cc2)c1
2. CCC(C)CN(C)c1nc(C(=O)O)nc2nc(-c3cccc(C)c3)n(Cc3ccc(C(F)(F)F)cc3)c12 (centres unmarked)
3. Cc1cccc(-c2nc3nc(C(=O)O)nc(NCC4CCCCC4)c3n2Cc2ccc(C(F)(F)F)cc2)c1
4. CCN(C)c1nc(C(=O)O)nc2nc(-c3cccc(C)c3)n(Cc3ccc(C(F)(F)F)cc3)c12

7.12
6.14
5.86
6.00
